# ASSAY_SYSTEM: staphylococcal enterotoxin B (Staphylococcus aureus (strain not …, UniProt P01552))
# Sequence (P01552 28-266): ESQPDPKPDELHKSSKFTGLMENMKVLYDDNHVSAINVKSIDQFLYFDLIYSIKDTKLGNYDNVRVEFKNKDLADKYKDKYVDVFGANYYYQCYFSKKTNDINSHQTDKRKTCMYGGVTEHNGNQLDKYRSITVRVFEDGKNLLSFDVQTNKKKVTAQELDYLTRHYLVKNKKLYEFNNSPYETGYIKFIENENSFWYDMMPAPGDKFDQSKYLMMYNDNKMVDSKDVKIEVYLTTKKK
# METHOD: SPR
# TEST_CONDITIONS: both partners purified
Below is a list of entries, each paired with its recorded Kd value.
Record the result as number plus unit.

Sample answers from the record:
sdAb H12 (VHH, source: E. coli Rosetta (DE3), periplasm, purified (IMAC, size exclusion chromatography)) VHH: EVQLQASGGGLVLTGGSLRLSCAASGRNFSNYAMAWFRQAPGKEREFVGTISWYTNTNYANSVKGRFSISRDNAKNTVYLQMSSLKPEDTAVYYCAAAPAMYYNPYTRESEYGYWGQGTQVTVSS | 0.272 nM
sdAb H9-H11 (VHH, source: E. coli, periplasm, purified (IMAC, size exclusion chromatography)) VHH: DVQLQASGGGLVQPGGSLRLSCAASESAVRIGFMGWHRQAPGNQRERVAQISSTGLPTYADAVKGRFTISRDNTKNTVYLQMNSLNADDTAVYFCNARLYDGTSVWGQGTQVTVSS | 1.56 nM

Kd reading for sdAb B12 (VHH, source: E. coli Rosetta (DE3), periplasm, purified (IMAC, size exclusion chromatography)) VHH: EVQLQASGGGLVQAGGPLRLTCAVSGPTFGSYALGWFRQAPGKEREFVAAVSWSGGDTYADSVKGRFIISRDNAKNTVYLQMNNLEPEDTAVYSCARMQDRYYISKDAKDYGYWGQGTQVTVSS : 0.232 nM

Item: sdAb F1 (VHH, source: E. coli Rosetta (DE3), periplasm, purified (IMAC, size exclusion chromatography)) VHH: DVQLQASGGGLVQAGGSLRLTCAASLHTFGSYAMGWFRQAPGKEREFVAAISWSGGDTYSDSVKGRFTISRDNAKNTVYLQMNSLEPEDTAVYSCAAVEARYYISTDAKDYGYWGQGTQVTVSS | Kd: 0.65 nM

Measured Kd, sdAb D9 (VHH, source: E. coli Rosetta (DE3), periplasm, purified (IMAC, size exclusion chromatography)) VHH: EVQLQASGGGLAQAGDSLRLSCAASIRTFGSYAMGWFRQAPGKEREFVAAISWSGGDTYADSAKGRFTISRDNAKNMMYLQMNSLAPEDTAVYFCAIVEAKYYISKDARDYGYWGQGTQVFVSS : 0.111 nM

src = paper PMC4118376
